# Measurement protocol: Oral bioavailability in Sprague-Dawley rat at 10 mg/kg
# Type: ADME, organism-based
# Test parameters: in vivo
Quantity: bioavailability

For CC[C@H](Nc1nc(N)nc(N)c1C#N)c1nc2cccc(C#CCCCC(=O)N3CCOCC3)c2c(=O)n1-c1ccccc1 , what is its reported bioavailability?
29.7%

###

# Target or test system: Phosphatidylinositol 4,5-bisphosphate 3-kinase catalytic subunit delta isoform (Homo sapiens)
# Sequence (O00329 whole entry): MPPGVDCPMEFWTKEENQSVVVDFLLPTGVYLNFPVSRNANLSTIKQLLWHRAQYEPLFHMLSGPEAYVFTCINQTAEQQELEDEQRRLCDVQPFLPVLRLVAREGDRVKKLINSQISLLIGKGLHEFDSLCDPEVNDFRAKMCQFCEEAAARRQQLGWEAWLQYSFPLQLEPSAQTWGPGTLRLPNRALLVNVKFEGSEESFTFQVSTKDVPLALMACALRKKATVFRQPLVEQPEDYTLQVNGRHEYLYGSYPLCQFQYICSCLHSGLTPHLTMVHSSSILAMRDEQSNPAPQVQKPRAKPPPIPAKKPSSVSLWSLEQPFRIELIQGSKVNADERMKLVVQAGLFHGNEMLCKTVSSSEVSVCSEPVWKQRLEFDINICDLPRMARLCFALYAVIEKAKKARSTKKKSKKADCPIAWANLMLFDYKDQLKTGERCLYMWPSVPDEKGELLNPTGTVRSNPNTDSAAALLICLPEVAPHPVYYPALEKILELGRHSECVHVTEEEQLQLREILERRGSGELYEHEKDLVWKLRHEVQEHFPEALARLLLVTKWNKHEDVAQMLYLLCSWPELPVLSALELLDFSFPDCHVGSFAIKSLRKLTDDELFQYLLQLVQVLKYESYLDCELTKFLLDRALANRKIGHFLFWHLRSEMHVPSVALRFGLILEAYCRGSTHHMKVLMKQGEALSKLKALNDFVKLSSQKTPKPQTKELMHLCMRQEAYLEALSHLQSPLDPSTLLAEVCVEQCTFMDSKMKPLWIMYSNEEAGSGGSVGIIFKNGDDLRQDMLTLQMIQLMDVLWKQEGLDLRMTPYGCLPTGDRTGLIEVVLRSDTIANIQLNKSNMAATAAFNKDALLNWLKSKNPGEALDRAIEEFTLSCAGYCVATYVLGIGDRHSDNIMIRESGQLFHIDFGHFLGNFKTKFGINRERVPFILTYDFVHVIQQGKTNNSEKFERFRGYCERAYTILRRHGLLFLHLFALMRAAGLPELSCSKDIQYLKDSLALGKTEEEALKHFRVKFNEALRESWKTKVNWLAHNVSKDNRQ
# Measurement protocol: Inhibition of PI3Kdelta (unknown origin) using biotinylated PIP2 as substrate after 2 hrs by TR-FRET assay
pIC50: −log10 of the molar value.
Quantity: pIC50

For COCCOCCNC(=O)CCCC#Cc1cccc2nc(Cn3nc(-c4cccc(O)c4)c4c(N)ncnc43)n(Cc3ccccc3Cl)c(=O)c12 , what is its reported pIC50?
7.92 to 8.52

###

# Target or test system: Phosphatidylinositol 4,5-bisphosphate 3-kinase catalytic subunit alpha isoform (Homo sapiens)
# Sequence (P42336 whole entry, canonical isoform): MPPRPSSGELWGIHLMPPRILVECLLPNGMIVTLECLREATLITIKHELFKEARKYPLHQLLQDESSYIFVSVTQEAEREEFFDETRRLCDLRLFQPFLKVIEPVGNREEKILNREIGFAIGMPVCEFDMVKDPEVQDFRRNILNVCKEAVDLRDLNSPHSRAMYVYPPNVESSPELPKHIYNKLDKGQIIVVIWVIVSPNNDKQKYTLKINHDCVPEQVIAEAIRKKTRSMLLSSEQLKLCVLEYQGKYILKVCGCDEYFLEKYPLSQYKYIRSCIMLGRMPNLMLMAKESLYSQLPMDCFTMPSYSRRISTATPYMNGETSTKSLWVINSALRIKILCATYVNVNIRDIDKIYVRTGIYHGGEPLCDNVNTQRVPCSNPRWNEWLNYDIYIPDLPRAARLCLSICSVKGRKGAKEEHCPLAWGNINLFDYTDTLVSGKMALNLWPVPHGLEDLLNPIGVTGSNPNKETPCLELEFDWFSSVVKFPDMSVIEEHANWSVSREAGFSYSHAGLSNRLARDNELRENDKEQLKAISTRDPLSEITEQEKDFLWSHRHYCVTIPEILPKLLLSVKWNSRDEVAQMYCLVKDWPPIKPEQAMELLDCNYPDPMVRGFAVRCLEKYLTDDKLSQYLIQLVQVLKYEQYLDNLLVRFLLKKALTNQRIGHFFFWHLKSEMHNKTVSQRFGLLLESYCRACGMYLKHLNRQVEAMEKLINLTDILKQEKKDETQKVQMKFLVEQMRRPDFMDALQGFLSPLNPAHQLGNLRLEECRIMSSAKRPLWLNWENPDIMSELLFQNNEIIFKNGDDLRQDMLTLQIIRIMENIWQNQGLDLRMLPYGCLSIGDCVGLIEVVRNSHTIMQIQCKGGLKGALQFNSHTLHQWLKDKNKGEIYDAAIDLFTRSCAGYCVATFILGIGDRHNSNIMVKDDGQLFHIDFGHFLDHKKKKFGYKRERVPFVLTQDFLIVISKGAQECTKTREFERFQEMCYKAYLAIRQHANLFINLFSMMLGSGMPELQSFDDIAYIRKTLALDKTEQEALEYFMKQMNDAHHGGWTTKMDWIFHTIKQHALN
# Measurement protocol: Inhibition of PI3Kalpha (unknown origin) using PIP2 as substrate measured after 30 mins by HTRF assay
Quantity: pIC50
One number for each entry, as −log10 of the molar value.

Answered cases to consult:
* Cc1nc(N)nc(N2CCC[C@H]2c2nc3cccc(C#CCCCC(=O)N4CCCC4)c3c(=O)n2-c2ccccc2)c1C#N | 5.83
* CC[C@H](Nc1nc(N)nc(N)c1C#N)c1nc2cccc(C#CCCCC(=O)N3CCOCC3)c2c(=O)n1-c1ccccc1 | 6.23
* N#Cc1c(N)ncnc1N1CCC[C@H]1c1nc2cccc(C#CCCCC(=O)N3CCOCC3)c2c(=O)n1-c1ccccc1 | 5.51

Continue with the next molecule.
For CC[C@H](Nc1nc(N)nc(N)c1C#N)c1nc2cccc(C#CCCCC(=O)N3CCCC3)c2c(=O)n1-c1ccccc1 , what is its reported pIC50?
6.20
